Where these numbers come from: patent US20080318943A1

- MEASUREMENT TARGET: GABAA2 receptors (α2, β3, γ2 receptor subunits transfected into Sf9 cells) (Homo sapiens, UniProt P18507+P47869)
- Sequence (P47869 29-451): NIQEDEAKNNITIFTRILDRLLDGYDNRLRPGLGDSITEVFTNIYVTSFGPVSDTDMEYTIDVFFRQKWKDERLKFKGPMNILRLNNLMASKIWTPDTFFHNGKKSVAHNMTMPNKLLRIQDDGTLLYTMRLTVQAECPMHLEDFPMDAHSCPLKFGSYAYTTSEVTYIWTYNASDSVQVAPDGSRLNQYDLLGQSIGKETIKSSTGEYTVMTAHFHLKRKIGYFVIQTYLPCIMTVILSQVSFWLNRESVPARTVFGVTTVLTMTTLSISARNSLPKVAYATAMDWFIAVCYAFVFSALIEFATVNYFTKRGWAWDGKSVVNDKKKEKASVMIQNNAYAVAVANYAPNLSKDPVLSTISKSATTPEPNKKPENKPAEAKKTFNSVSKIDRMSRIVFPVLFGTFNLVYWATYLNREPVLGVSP
- Sequence (P28472 26-473 partner): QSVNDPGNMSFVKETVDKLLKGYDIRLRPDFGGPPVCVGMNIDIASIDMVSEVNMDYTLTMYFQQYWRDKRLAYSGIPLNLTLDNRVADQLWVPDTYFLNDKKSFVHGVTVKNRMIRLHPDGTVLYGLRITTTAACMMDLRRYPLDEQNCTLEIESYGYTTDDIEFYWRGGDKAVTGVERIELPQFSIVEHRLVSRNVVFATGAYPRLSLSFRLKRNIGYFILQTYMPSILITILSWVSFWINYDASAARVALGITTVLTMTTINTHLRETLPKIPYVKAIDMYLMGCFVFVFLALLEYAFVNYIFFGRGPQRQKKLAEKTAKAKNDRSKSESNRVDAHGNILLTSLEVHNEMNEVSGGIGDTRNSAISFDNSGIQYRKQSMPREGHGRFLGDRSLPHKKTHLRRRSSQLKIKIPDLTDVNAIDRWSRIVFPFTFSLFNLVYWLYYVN
- Sequence (P18507 40-475): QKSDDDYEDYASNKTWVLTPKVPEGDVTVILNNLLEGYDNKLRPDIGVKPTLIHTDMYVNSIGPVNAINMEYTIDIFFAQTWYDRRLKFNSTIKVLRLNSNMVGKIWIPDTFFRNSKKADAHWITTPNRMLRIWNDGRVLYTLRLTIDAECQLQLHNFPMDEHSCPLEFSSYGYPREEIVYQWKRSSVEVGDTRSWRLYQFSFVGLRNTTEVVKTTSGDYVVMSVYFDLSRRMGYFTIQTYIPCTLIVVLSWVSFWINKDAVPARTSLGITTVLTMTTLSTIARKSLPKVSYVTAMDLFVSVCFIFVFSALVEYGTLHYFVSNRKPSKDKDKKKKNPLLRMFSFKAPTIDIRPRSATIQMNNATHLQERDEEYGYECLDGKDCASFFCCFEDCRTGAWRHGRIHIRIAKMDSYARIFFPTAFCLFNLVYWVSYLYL
- METHOD DESCRIPTION: GABAA2 Binding Method ([3H]-Flunitrazepam displacement)
- EXPERIMENTAL PARAMETERS: [3H]-Flunitrazepam ~2 nM, α2β3γ2 Sf9 membranes, 1 hr at 4° C.
- Description: In some embodiments, the binding test is directed to a subtype of GABAA receptors, such as GABAA1 receptors (i.e., those containing the α1 subunit), GABAA2 receptors (i.e., those containing the α2 subunit), GABAA3 receptors (i.e., those containing the α3 subunit) and GABAA5 receptors (i.e., those containing the α5 subunit). [^3H]-Flunitrazepam (Cat #NET567): Prepare 10× stock=20 nM, [F} in assay=˜2 nM 1. […] Data is analyzed by calculating percent of control, IC50, and Ki in an XLfit template. […]
Recorded Ki split into classes bin A = under 5 nM, bin B = from 5 nM up to 30 nM, bin C = 30 nM and over

The entry to classify is COc1ccc(CN2Cc3nc4c(-c5ccc(C)nc5Cl)cccc4c(N)c3C2=O)cc1OC ; which class holds it?
bin A

The entry to classify is COc1ccc(C)cc1-c1cccc2c(N)c3c(nc12)CN(C)C3=O ; which class holds it?
bin C

The entry to classify is COc1ccc(CN2Cc3nc4c(-c5cccnc5OC)cccc4c(N)c3C2=O)cc1OC ; which class holds it?
bin A

The entry to classify is CCN1Cc2nc3c(-c4cccc(F)c4OC)cccc3c(N)c2C1=O ; which class holds it?
bin B

The entry to classify is Nc1c2c(nc3c(-c4c(F)cccc4F)cccc13)CN(C1CC1)C2=O ; which class holds it?
bin A

The entry to classify is Nc1c2c(nc3c(-c4ccccn4)cccc13)CN(C1CCC1)C2=O ; which class holds it?
bin A

The entry to classify is COc1ccc(CN2Cc3nc4c(-c5ccc(OC)c(OC)c5)cccc4c(N)c3C2=O)cc1 ; which class holds it?
bin C

The entry to classify is CCCN1Cc2nc3c(-c4ccc(C)nc4OC)cccc3c(N)c2C1=O ; which class holds it?
bin B

The entry to classify is COc1cccc(F)c1-c1c(F)ccc2c(N)c3c(nc12)CN(C)C3=O [Example 70] ; which class holds it?
bin B

The entry to classify is Cc1ccc(-c2cccc3c(N)c4c(nc23)CN(C2CCC2)C4=O)nc1 ; which class holds it?
bin B

The entry to classify is Cc1ccc(-c2cccc3c(N)c4c(nc23)CN(C2CCC2)C4=O)c(F)n1 ; which class holds it?
bin A

The entry to classify is COc1ncccc1-c1cccc2c(N)c3c(nc12)CN([C@H]1C[C@@H](C)C1)C3=O ; which class holds it?
bin A

The entry to classify is COc1ccc(CN2Cc3nc4c(-c5cccc(F)c5F)cccc4c(N)c3C2=O)cc1 ; which class holds it?
bin C

The entry to classify is COc1ccc(-c2c(F)ccc3c(N)c4c(nc23)CN(C2CCC2)C4=O)c(OC)n1 ; which class holds it?
bin A

The entry to classify is COc1ccc(CN2Cc3nc4c(-c5ccccc5C(F)(F)F)cccc4c(N)c3C2=O)cc1 ; which class holds it?
bin C

The entry to classify is COc1ccc(CN2Cc3nc4c(-c5cc(F)ccc5F)cccc4c(N)c3C2=O)cc1 ; which class holds it?
bin C

The entry to classify is CCCN1Cc2nc3c(-c4cccc(C)c4C)cccc3c(N)c2C1=O ; which class holds it?
bin B

The entry to classify is COc1ccc(CN2Cc3nc4c(-c5cc(C)ccc5OC)cccc4c(N)c3C2=O)cc1 ; which class holds it?
bin C

The entry to classify is COc1cccc(F)c1-c1c(F)ccc2c(N)c3c(nc12)CN(C1CC1)C3=O ; which class holds it?
bin A

The entry to classify is COc1ccc(F)cc1-c1cccc2c(N)c3c(nc12)CN(C1CCC1)C3=O ; which class holds it?
bin B

The entry to classify is CCN1Cc2nc3c(-c4cnccc4C)cccc3c(N)c2C1=O ; which class holds it?
bin B

The entry to classify is CCCN1Cc2nc3c(-c4ccccc4Cl)cccc3c(N)c2C1=O ; which class holds it?
bin A

The entry to classify is COc1cccc(Cl)c1-c1cccc2c(N)c3c(nc12)CN(C1CCC1)C3=O ; which class holds it?
bin A

The entry to classify is COc1ccc(-c2cccc3c(N)c4c(nc23)CN(C)C4=O)c(F)c1 ; which class holds it?
bin C

The entry to classify is CCCN1Cc2nc3c(-c4ccc(OC)c(OC)c4OC)cccc3c(N)c2C1=O ; which class holds it?
bin C

The entry to classify is CCCN1Cc2nc3c(-c4cccc(Cl)c4)cccc3c(N)c2C1=O ; which class holds it?
bin C

The entry to classify is COc1ccc(-c2cccc3c(N)c4c(nc23)CN(C2CCCC2)C4=O)cn1 ; which class holds it?
bin C

The entry to classify is Cc1nc(F)ccc1-c1cccc2c(N)c3c(nc12)CN(C1CCC1)C3=O ; which class holds it?
bin A

The entry to classify is COc1ccc(C)cc1-c1cccc2c(N)c3c(nc12)CN(Cc1ccc2c(c1)OCO2)C3=O ; which class holds it?
bin B

The entry to classify is COc1ccc(-c2c(F)ccc3c(N)c4c(nc23)CN(C2CC2)C4=O)c(OC)n1 ; which class holds it?
bin B

The entry to classify is CCN1Cc2nc3c(-c4cccc(OC)c4F)cccc3c(N)c2C1=O ; which class holds it?
bin B

The entry to classify is COc1ccc(CN2Cc3nc4c(-c5cnccc5OC)cccc4c(N)c3C2=O)cc1 ; which class holds it?
bin A

The entry to classify is COc1ccc(OC)c(CN2Cc3nc4c(-c5cccnc5OC)cccc4c(N)c3C2=O)c1 ; which class holds it?
bin C

The entry to classify is COc1ccc(C)cc1-c1cccc2c(N)c3c(nc12)CN(C1CCC1)C3=O ; which class holds it?
bin A

The entry to classify is CCN1Cc2nc3c(-c4cc(OC)cc(OC)c4)cccc3c(N)c2C1=O ; which class holds it?
bin B

The entry to classify is Cc1ccc(-c2cccc3c(N)c4c(nc23)CN(C2CC2)C4=O)c(F)n1 ; which class holds it?
bin C

The entry to classify is COc1cccc(F)c1-c1cccc2c(N)c3c(nc12)CN(C1CCC1)C3=O (single isomer, unassigned) [Example 130] ; which class holds it?
bin B

The entry to classify is CCN1Cc2nc3c(-c4c(F)cccc4OC)cccc3c(N)c2C1=O ; which class holds it?
bin A
